Reference source for all entries: patent US12473299B2

Tested on: single-stranded oligo DNA 5′-d(AGCAAAAAACGC)-3′ (SEQ ID No. 19)
TEST: Double-strand forming ability (Tm) with single-stranded oligo DNA
Format: binding
RECORDED CONDITIONS: Tm change per artificially modified nucleic acid base vs 5′-GCGTTTTTTGCT-3′
[HNA] = hexitol nucleic acid; d = 2'-deoxy (DNA)
Parameter ssDNA ΔTm/mod.: see the listing below.
READOUT LABEL: ssDNA ΔTm/mod. (°C)

SUBSTANCE: 5′-d(GCG111111GCT)-3′ (DNA GCGTTTTTTGCT; BANA-T1 modified nucleotides; modified_base (4)..(9) ANA-t1) [5′-GCG111111GCT-3′]
UNIT ABBREVIATION: °C
DATA VALUE: −1.8
//
SUBSTANCE: 5′-d(GCGTT1TTTGCT)-3′ (DNA GCGTTTTTTGCT; BANA-T1 modified nucleotide; modified_base (6)..(6) t = BANA-t1) [5′-GCGTT1TTTGCT-3′]
UNIT ABBREVIATION: °C
DATA VALUE: −10
//
SUBSTANCE: 5′-d(GCGTTHTTTGCT)-3′ (DNA GCGTTTTTTGCT; sugars from the 5' end d5 [HNA]1 d6, backbone not given here) [H=HNA-T, reference compound]
UNIT ABBREVIATION: °C
DATA VALUE: −4
//
SUBSTANCE: 5′-d(GCG222222GCT)-3′ (DNA GCGTTTTTTGCT; BANA-T2 modified nucleotides; modified_base (4)..(9) t = BANA-t2) [5′-GCG222222GCT-3′, 2=Compound 19 (BANA-T2)]
UNIT ABBREVIATION: °C
DATA VALUE: −0.7

---

Tested on: single-stranded oligo RNA 5′-r(AGCAAAAAACGC)-3′ (SEQ ID No. 18)
TEST: Double-strand forming ability (Tm) with single-stranded oligo RNA
Assay type: binding
RECORDED CONDITIONS: sequences (18) to (21); as in Example 9
l = locked nucleic acid (LNA); d = 2'-deoxy (DNA)
# RNA Complement Tm values compiled below

SUBSTANCE: 5′-d(GCGTTL33TGCT)-3′ (DNA GCGTTTTTTGCT; LNA-T and BANA-T3 modified nucleotides; modified_base (6)..(6) t = LNA-t; modified_base (7)..(8) t = BANA-t3) [(19), L=LNA-T, 3=Compound 25 (BANA-T3)]
RNA Complement Tm, °C: 64
//
SUBSTANCE: 5′-d(GCGTT33LTGCT)-3′ (DNA GCGTTTTTTGCT; LNA-T and BANA-T3 modified nucleotides; modified_base (6)..(7) t = BANA-t3; modified_base (8)..(8) t =LNA-t) [(21), L=LNA-T, 3=Compound 25 (BANA-T3)]
RNA Complement Tm, °C: 61
//
SUBSTANCE: 5′-d(GCGTTLLLTGCT)-3′ (DNA GCGTTTTTTGCT; sugars from the 5' end d5 l3 d4, backbone not given here) [(18), L=LNA-T (LNA), reference compound]
RNA Complement Tm, °C: 63
//
SUBSTANCE: 5′-d(GCGTT3L3TGCT)-3′ (DNA GCGTTTTTTGCT; LNA-T and BANA-T3 modified nucleotides; modified_base (6)..(6) t = BANA-t3; modified_base (7)..(7) t = LNA-t; modified_base (8)..(8) t = BANA-t3) [(20), L=LNA-T, 3=Compound 25 (BANA-T3)]
RNA Complement Tm, °C: 60

---

Test system: single-stranded oligo DNA 5′-d(AGCAAAAAACGC)-3′ (SEQ ID No. 19)
TEST: Double-strand forming ability (Tm) with single-stranded oligo DNA
Format: binding
RECORDED CONDITIONS: oligonucleotide 4 μM, 10 mM phosphate buffer pH 7.2, 100 mM NaCl; mean of three measurements
Description: The double-strand forming ability of the oligonucleotides was examined by subjecting the different types of oligonucleotides and the target strands to an annealing treatment to form double strands, and then measuring their Tm values. […] The temperature was raised to 90° C. at a rate of 0.5° C./min while absorbance at 260 nm was plotted at intervals of 0.5° C. […]
[HNA] = hexitol nucleic acid; d = 2'-deoxy (DNA)
This section presents substances with their documented ssDNA Tm values.

SUBSTANCE: 5′-d(GCGTTTTTTGCT)-3′ (DNA, backbone and methylation of C not given here) [native DNA (dT), reference compound]
ssDNA Tm (°C): 51
--
SUBSTANCE: 5′-d(GCGTT1TTTGCT)-3′ (DNA GCGTTTTTTGCT; BANA-T1 modified nucleotide; modified_base (6)..(6) t = BANA-t1) [5′-GCGTT1TTTGCT-3′]
ssDNA Tm (°C): 41
--
SUBSTANCE: 5′-d(GCG111111GCT)-3′ (DNA GCGTTTTTTGCT; BANA-T1 modified nucleotides; modified_base (4)..(9) ANA-t1) [5′-GCG111111GCT-3′]
ssDNA Tm (°C): 40
--
SUBSTANCE: 5′-d(GCG222222GCT)-3′ (DNA GCGTTTTTTGCT; BANA-T2 modified nucleotides; modified_base (4)..(9) t = BANA-t2) [5′-GCG222222GCT-3′, 2=Compound 19 (BANA-T2)]
ssDNA Tm (°C): 47
--
SUBSTANCE: 5′-d(GCGTTHTTTGCT)-3′ (DNA GCGTTTTTTGCT; sugars from the 5' end d5 [HNA]1 d6, backbone not given here) [H=HNA-T, reference compound]
ssDNA Tm (°C): 47
